This collection of values is drawn from the supplement of paper PMC9170038.

tested on: MS2 coat protein; assay: apparent KD of MS2 coat protein; designed switch direction (-1 OFF switch, 1 ON switch): -1; higher = weaker reporter binding; details: input ligand: none
In this scheme, each record receives a class according to its apparent KD of MS2 coat protein; the ranges are band A (below 20 nM), band B (20 nM to below 50 nM), band C (50 nM or more)

Solved entries (count: 3):
GGGCCCGGAGGAUAUACAUGAGGAUCACCCAUGUAGGGCUCGGGUAUUCUCGGGCUCUGUAGAAGGCCGGGCCC [-39.6, -36.7 kcal, A 19%, 5,0] (Eterna round: R97, puzzle: Exclusion 3) = band A
CGAGCUGCUGUGAGGAUAUACCUAUGGAUACGUGGGUAGAAGGCACAUGAGGAUCACCCAUGUCCUGCAGCUCG [salish99_bmx4_r4_102] (Eterna round: R97, puzzle: Brourd's mod of Exclusion 4) = band C
CAGUACUGAGGAUAUACAUGAGGAUCACCCAUGUUCCAAGGCUAGGAAACUAGCAAAAGUAGAAGGCAGUACUG [828 mod 2 m3] (Eterna round: R97, puzzle: Exclusion 3) = band B

Switching to the query record.
Which bin, given its apparent KD of MS2 coat protein, does AGCCUAGCAGGAUAUGCCCGGGAUAACAUGAGGAUCACCCAUGUGACCGAUUGAUGUCCUGCAGAAGGGCUAGGGA [JL-EX5-4.00 ViennaUCT mod] (Eterna round: R97, puzzle: Exclusion 5) occupy?
band A
